- Test system: barnyardgrass
- Assay comment: Test C postemergence
- Type: in vivo, Echinochloa crusgalli
- Test settings: 125 g ai/ha, postemergence, 10 days; 0 to 100 scale, 0 no effect, 100 complete control
Consider the following compounds; for each one, report its Plant response rating, Barnyardgrass.
Numbers only.

In the examples that follow, each entry is paired with its recorded Plant response rating, Barnyardgrass.
Qu. Could you tell me which Plant response rating, Barnyardgrass is on file for COc1ccc(-n2cnc(C(C)(C)O)n2)cc1C(=O)N1C[C@H](C)Oc2c(Cl)cccc21 [Compound 254] ?
Ans. 50

Qu. And then CCn1cnc(-c2cccc(C(=O)N3C[C@H](C)Oc4c(C)cccc43)c2)n1 [Compound 165] , what is it?
Ans. 0

Qu. Same read-out for C[C@H]1CN(C(=O)c2cccc(-n3cnc(C(C)(C)O)n3)c2)c2cccc(Cl)c2O1 [Compound 169] ?
Ans. 20

Qu. Another compound: Cc1cccc2c1O[C@@H](C)CN2C(=O)c1cc(-n2cnc(C(C)C)n2)cc2ccoc12 [Compound 227]
Ans. 40

Qu. // repeat for CC(C)c1ncn(-c2ccc(SC(F)(F)F)c(C(=O)N3C[C@H](C)Oc4c(Cl)cccc43)c2)n1 [Compound 249] and report
Ans. 10

For each of the items listed, what is its Plant response rating, Barnyardgrass?
1. COC[C@H]1CN(C(=O)c2cc(-n3cnc(C(C)(C)O)n3)ccc2C)c2cccc(Cl)c2O1 [Compound 276]
2. CC(C)c1ncn(-c2cc3c(c(C(=O)N4C[C@H](C)Oc5c(Cl)cccc54)c2)OCCCO3)n1 [Compound 158]
3. Cc1ccc(-n2cnc(CC3CC3)n2)cc1C(=O)N1C[C@H](C)Oc2c(Cl)cccc21 [Compound 273]
4. COC[C@H]1CN(C(=O)c2cc(-n3cncn3)ccc2C)c2cccc(Cl)c2O1 [Compound 263]

Ans.
1: 30; 2: 40; 3: 30; 4: 70

###

- Test system: corn
- Assay comment: Test C postemergence
- Assay type: in vivo, Zea mays
- Test settings: 125 g ai/ha, postemergence, 10 days; 0 to 100 scale, 0 no effect, 100 complete control
Criterion: Plant response rating, Corn strictly less than 20. Met: True. Not met: False.

Some solved cases for reference:
Qu. Field: below-cutoff. Rule: recorded Plant response rating, Corn strictly less than 20. Subject: `COC[C@H]1CN(C(=O)c2cc(-n3cnc(C4CC4)n3)ccc2C)c2cccc(Cl)c2O1`
Ans. False

Qu. # iterate: `Cc1ccc(-n2cnc(C(C)C)n2)cc1C(=O)N1C[C@H](C)Oc2c1cccc2C(F)(F)F`
Ans. False

Qu. Same question for Cc1ccc(-n2cnc(C(C)C)n2)cc1C(=O)N1CC(C(F)(F)F)Oc2c(Cl)cccc21 (single isomer, unassigned) please.
Ans. True

Qu. Same read-out for `CCn1cnc(-c2cccc(C(=O)N3C[C@H](C)Oc4c(C)cccc43)c2)n1` ?
Ans. True

Qu. Same again, this time with `COc1ccc(-n2cncn2)cc1C(=O)N1C[C@H](C)Oc2c(F)cccc21`
Ans. False

Qu. Can you handle `Cc1ccc(-n2cnc(C3(C)CC3)n2)cc1C(=O)N1C[C@H](C)Oc2c(Cl)cccc21` next?
Ans. False

More entries:
Qu. Answer whether the compound `Cc1ccc(-n2cnc(C3(C)CCC3)n2)cc1C(=O)N1C[C@H](C)Oc2c(Cl)cccc21` has Plant response rating, Corn strictly less than 20
Ans. True

Qu. Check `Cc1cccc2c1O[C@@H](C)CN2C(=O)c1cccc(-n2cnc(N(C)S(C)(=O)=O)n2)c1` too.
Ans. True

Qu. Lookup `Cc1ccc(-n2cnc(CC3CC3)n2)cc1C(=O)N1C[C@H](C)Oc2c(Cl)cccc21`
Ans. True

Qu. Thanks! And `COc1ccc(-n2cncn2)cc1C(=O)N1C[C@H](C)Oc2c(Cl)cccc21` ?
Ans. False

###

- Test system: wheat
- Assay comment: Test C preemergence
- Assay type: in vivo, Triticum aestivum
- Test settings: Preemergence, 125 g ai/ha; 0 to 100 scale, 0 no effect, 100 complete control
Quantity measured: Plant response rating, Wheat
Answers are plain numbers.

Qu. # query: Plant response rating, Wheat of entry Cc1ncc(-c2cccc(C(=O)N3C[C@H](C)Oc4c(Cl)cccc43)c2)o1 [Compound 352]
Ans. 0

Qu. Next record, please: CCc1cc(C(=O)N2C[C@H](C)Oc3c(Cl)cccc32)cc(-n2cncn2)c1 [Compound 332]
Ans. 0

Qu. Ok, now CC(=O)N(C)c1ncn(-c2cccc(C(=O)N3C[C@H](C)Oc4c(C)cccc43)c2)n1 [Compound 336]
Ans. 0

Qu. Would you kindly repeat that for CCOC[C@H]1CN(C(=O)c2cc(-n3cnc(C(C)(C)C)n3)cc3c2OCO3)c2cccc(Cl)c2O1 [Compound 401] ?
Ans. 0

Qu. Can you handle CCOC[C@H]1CN(C(=O)c2cc(-n3cnc(C(C)C)n3)cc3c2OCCO3)c2cccc(Cl)c2O1 [Compound 396] next?
Ans. 0

Each of the following entries comes with a recorded value; kindly state Plant response rating, Wheat for each.
1. CC(C)c1ncn(-c2ccc([S+](C)[O-])c(C(=O)N3C[C@H](C)Oc4c(Cl)cccc43)c2)n1 (stereo partly drawn) [Compound 394]
2. COC[C@H]1CN(C(=O)c2cc(-n3cnc(C(C)(C)O)n3)ccc2OC)c2cccc(Cl)c2O1 [Compound 408]
3. CC(C)(C)c1ncn(-c2cc(C(=O)N3CC(C(F)(F)F)Oc4c(Cl)cccc43)ccn2)n1 (stereo not drawn) [Compound 322]
4. COC[C@H]1CN(C(=O)c2cc(-n3cnc(C(C)C)n3)cc3c2OCCO3)c2cccc(Cl)c2O1 [Compound 395]
5. Cc1ccc(-n2cncn2)cc1C(=O)N1CC(C(F)(F)F)Oc2c(Cl)cccc21 (stereo not drawn) [Compound 346]

Ans.
[20, 20, 0, 30, 0]

###

For each entry below, report its Plant response rating, Blackgrass value.
- Test system: blackgrass
- Assay comment: Test C preemergence
- Assay type: in vivo, Alopecurus myosuroides
- Test settings: Preemergence, 125 g ai/ha; 0 to 100 scale, 0 no effect, 100 complete control
- Text: […]
Numbers only.

Qu. Fill blank: measured Plant response rating, Blackgrass of the molecule COC(C)c1ncn(-c2ccc(C)c(C(=O)N3CC(C)Oc4c(Cl)cccc43)c2)n1 (mixture of isomers) is ____.
Ans. 80

Qu. # repeat for `CCOC[C@H]1CN(C(=O)c2cc(-n3cnc(CC)n3)cc3c2OCCO3)c2cccc(Cl)c2O1`
Ans. 0

Qu. Also need `CC(C)c1ncn(-c2ccc(OS(C)(=O)=O)c(C(=O)N3C[C@H](C)Oc4c(Cl)cccc43)c2)n1` , thanks.
Ans. 20

Qu. Now this one: `COc1ccc(-n2cnc(C3CC3)n2)cc1C(=O)N1C[C@H](C)Oc2c(Cl)cccc21`
Ans. 70

Qu. Follow-up entry: `C[C@H]1CN(C(=O)c2cccc(-n3cnc(OS(C)(=O)=O)n3)c2)c2cccc(Cl)c2O1`
Ans. 0

Give Plant response rating, Blackgrass for each of the items listed below.
1. CCOC[C@H]1CN(C(=O)c2cc(-n3cnc(C(C)C)n3)ccc2C)c2cccc(Cl)c2O1
2. C[C@H]1CN(C(=O)c2cc(-n3cncn3)cc(C(F)(F)F)c2)c2cccc(Cl)c2O1

Ans.
1. 50
2. 20

###

- System: pigweed, palmer
- Assay comment: Test C postemergence
- Type: in vivo, Amaranthus palmeri
- Test settings: Postemergence, 125 g ai/ha; 0 to 100 scale (0 no effect, 100 complete control), 10 days
Quantity measured: Plant response rating, Pigweed, Palmer
Numbers only.

Qu. I'd like to know its Plant response rating, Pigweed, Palmer. The compound in question is `CCOC[C@H]1CN(C(=O)c2cc(-n3cnc(C(C)(C)C)n3)cc3c2OCCO3)c2cccc(Cl)c2O1`
Ans. 100

Qu. // repeat for `COC[C@H]1CN(C(=O)c2cc(-n3cnc(C(C)C)n3)ccc2OC)c2cccc(Cl)c2O1` and report
Ans. 60

Qu. Next record, please: Cc1ccc(-n2cnc(C(C)(C)C)n2)cc1C(=O)N1CC(C(F)(F)F)Oc2c(Cl)cccc21 (stereo not drawn)
Ans. 100

Qu. For CC(C)c1ncn(-c2ccc([S+](C)[O-])c(C(=O)N3C[C@H](C)Oc4c(Cl)cccc43)c2)n1 (stereo partly drawn) then?
Ans. 80

Qu. Queued: `COC(=O)c1ncn(-c2ccc(C)c(C(=O)N3C[C@H](C)Oc4c(Cl)cccc43)c2)n1`
Ans. 80

Qu. Check Cc1ccc(-n2cnc(CS(C)(=N)=O)n2)cc1C(=O)N1C[C@H](C)Oc2c(Cl)cccc21 (stereo partly drawn) too.
Ans. 90

Qu. And for `Cc1cccc2c1O[C@@H](C)CN2C(=O)c1cccc(-n2cnc([N+](=O)[O-])n2)c1` ?
Ans. 0

Qu. Would you kindly repeat that for `CC(C)c1ncn(-c2cc(C(=O)N3C[C@H](C)Oc4c(Cl)cccc43)cnn2)n1` ?
Ans. 30

Qu. Thanks! And CC(C)c1ncn(-c2cccc(C(=O)N3CC(C(F)(F)F)Oc4c(Cl)cccc43)c2)n1 (stereo not drawn) ?
Ans. 90

Qu. Try this compound next: `CCOC[C@H]1CN(C(=O)c2cc(-n3cnc(C4CCC4)n3)cc3c2OCO3)c2cccc(Cl)c2O1`
Ans. 100

For each listed entry, give its Plant response rating, Pigweed, Palmer.
1. CC(C)c1ncn(-c2cc(C(=O)N3CC(C(F)(F)F)Oc4c(Cl)cccc43)ccn2)n1 (racemic) [Compound 329]
2. CC(C)c1ncn(-c2cc(C(=O)N3CC(C(F)(F)F)Oc4c(Cl)cccc43)ccn2)n1 (single isomer, unassigned) [Compound 330]

Ans.
1. 20
2. 70

Provide the reported Plant response rating, Pigweed, Palmer of each entry below, same order.
1. Cc1ncn(-c2ccc(F)c(C(=S)N3C[C@H](C)Oc4c(C)cccc43)c2)n1
2. CC(C)c1ncn(-c2ccc(OS(C)(=O)=O)c(C(=O)N3C[C@H](C)Oc4c(Cl)cccc43)c2)n1
3. Cc1ccc(-n2cnc(C3(C#N)CCC3)n2)cc1C(=O)N1C[C@H](C)Oc2c(Cl)cccc21
4. CCOC[C@H]1CN(C(=O)c2cc(-n3cnc(C(C)C)n3)cc3c2OCO3)c2cccc(Cl)c2O1

Ans.
1: 30; 2: 90; 3: 90; 4: 100

Would you mind giving Plant response rating, Pigweed, Palmer for every compound in the list below?
1. CCOC[C@H]1CN(C(=O)c2cc(-n3cnc(C(C)(C)C)n3)cc3c2OCO3)c2cccc(Cl)c2O1
2. CNc1ncn(-c2cccc(C(=O)N3C[C@H](C)Oc4c(C)cccc43)c2)n1
3. Cc1cccc2c1OC(C(F)(F)F)CN2C(=O)c1cccc(-n2cnc(C(C)C)n2)c1 (racemic) [Compound 301]
4. CCc1cc(C(=O)N2C[C@H](C)Oc3c(Cl)cccc32)cc(-n2cncn2)c1
5. Cc1ncn(-c2cc(C(=O)N3CC(C(F)(F)F)Oc4c(Cl)cccc43)ccn2)n1 (stereo not drawn)
6. Cc1ccc(-n2cnc(C(C)O)n2)cc1C(=O)N1CC(C)Oc2c(Cl)cccc21 (mixture of isomers)

Ans.
1: 100; 2: 20; 3: 10; 4: 70; 5: 10; 6: 50

Below is a list of compounds. For each, state its recorded Plant response rating, Pigweed, Palmer.
1. Cc1cccc2c1OC(C(F)(F)F)CN2C(=O)c1cccc(-n2cnc(C(C)C)n2)c1 (single isomer, unassigned) [Compound 302]
2. CCc1ncn(-c2cc(C(=O)N3CC(C(F)(F)F)Oc4c(C)cccc43)ccn2)n1 (stereo not drawn)

Ans.
[10, 20]
